measured_on: T1R1/T1R3 receptor (Felis catus, UniProt E3UMS2)
method: cell-based
Assay type: cell-based
condition_context: EC50 +Alanine + IMP, +Alanine (20 mM) + IMP (0.2 mM); Table 18
Excerpt: HEK293 cells that stably express T1R3 and inducibly express T1R1 were exposed to transmembrane compounds alone or in combination with one or more amino acids and/or one or more nucleotides to activate the umami receptor. Activation of the T1R1/T1R3 receptor was detected by a change in intracellular calcium levels using a calcium sensitive fluorescent dye. Cells that express T1R3 but not T1R1 were used as a control. A FLIPR® Tetra or a FlexStation® 3 was used for data capture. […]
observable: EC50 (µM)
# value in µM; strip the unit string

### Prompt Specify EC50 for CCC(CC)NC(=O)/C=C/c1ccc(OC)cc1 and stop.
### Response 80

### Prompt Specify EC50 for CCC(CC)NC(=O)c1ccc2c(c1)OCCO2 and stop.
### Response 200

### Prompt Specify EC50 for CSc1ccc(-c2nnn(Cc3ccccn3)n2)cc1 and stop.
### Response 270

### Prompt Specify EC50 for O=C(NCCc1ccccc1)C(=O)NCc1cccnc1 and stop.
### Response 200

---

measured_on: T1R1/T1R3 receptor (Felis catus)
method: cell-based
Could you label it y if measured Thres (mM), +Alanine (20 mM) is 0.1 mM or higher, and n otherwise?

### Prompt Evaluate O=C(NCCc1ccccc1)c1ccccc1 [N-phenethylbenzamide] : Thres (mM), +Alanine (20 mM) at minimum 0.1 mM?
### Response y

### Prompt Evaluate O=C(NCCCCNC(=O)c1cccnc1)c1cccnc1 [N,N′-(butane-1,4-diyl)dinicotinamide] : Thres (mM), +Alanine (20 mM) at minimum 0.1 mM?
### Response y

### Prompt Evaluate O=P(O)(O)OP(=O)(O)OP(=O)(O)OC[C@H]1O[C@@H](n2cnc3c(Cl)ncnc32)[C@H](O)[C@@H]1O : Thres (mM), +Alanine (20 mM) at minimum 0.1 mM?
### Response n

### Prompt Evaluate CC(C)CC(NC(=O)c1ccccc1)C(N)=O (racemic) : Thres (mM), +Alanine (20 mM) at minimum 0.1 mM?
### Response y

### Prompt Evaluate O=C(NCCc1c[nH]c2ccccc12)c1cccnc1 [N-(2-(1H-indol-3-yl)ethyl)nicotinamide, N-(2-(1H-Indol-3-yl)ethyl)nicotinamide] : Thres (mM), +Alanine (20 mM) at minimum 0.1 mM?
### Response n

### Prompt Evaluate CCOC(=O)NC(=O)C(c1ccccc1)c1ccccc1 [Ro 01-6128, reference compound] : Thres (mM), +Alanine (20 mM) at minimum 0.1 mM?
### Response y

---

measured_on: T1R1/T1R3 receptor (Felis catus)
method: cell-based
condition_context: in the presence of 0.2 mM IMP
I'd be grateful if you could share measured Max resp ΔF/F, +IMP (0.2 mM) for these entries.

### Prompt Specify Max resp ΔF/F, +IMP (0.2 mM) for O=C(NCCc1ccccc1)c1ccccc1 [N-phenethylbenzamide] and stop.
### Response 0.9800 ΔF/F

### Prompt Specify Max resp ΔF/F, +IMP (0.2 mM) for Nc1nc2c(ncn2[C@@H]2O[C@H](COP(=O)(O)OP(=O)(O)O)[C@@H](O)[C@H]2O)c(=S)[nH]1 [6-Thioguanosine-5′-O-diphosphate] and stop.
### Response 0.0720 ΔF/F

### Prompt Specify Max resp ΔF/F, +IMP (0.2 mM) for N[C@@H](CS)C(=O)O and stop.
### Response 0.5800 ΔF/F

### Prompt Specify Max resp ΔF/F, +IMP (0.2 mM) for N[C@@H](Cc1ccccc1)C(=O)O [L-Phenylalanine, reference compound] and stop.
### Response 0.5900 ΔF/F

### Prompt Specify Max resp ΔF/F, +IMP (0.2 mM) for COC(=O)[C@H](Cc1ccccc1)NCc1ccccc1.Cl and stop.
### Response 2.2500 ΔF/F
